# assay-summary: Chemical stability
# Assay type: physicochemical
experimental-endpoint: chemical stability

COC12C#C/C=C\C#CC3N(C(=O)Oc4ccccc4)C4=CC(=O)C=CC45OC15C3(O)CCC2 (stereo not shown)	stable molecules
COC12C#C/C=C\C#CC3NC4=CC(=O)C=CC45OC15C3(O)CCC2 (stereo not shown)	stable molecules

====

Provide the recorded IC50 for the entries that follow.
# Test system: MCF-7(ADR) breast carcinoma cells
# assay-summary: Sulforhodamine B cytotoxicity, MCF-7/ADR
# Type: cell-based
# details: Homo sapiens, NCI/ADR-RES, Adriamycin resistant
Give bare numbers, in nM.

// worked examples, IC50 included
C[N+](C)(C)CC(=O)OCCOc1ccc2c(c1)[C@@]13O[C@]14CCC[C@H]3C#C/C=C\C#C[C@@H]4N2C(=O)OCCS(=O)(=O)c1ccccc1 (relative stereo)	190
O=C(OCCS(=O)(=O)c1ccccc1)N1c2ccccc2[C@]23O[C@@]24CCC[C@@H]3C#C/C=C\C#C[C@@H]14 [(-)-45]	1600
O=C(OCCS(=O)(=O)c1ccccc1)N1c2ccccc2[C@@]23O[C@]24CCC[C@H]3C#C/C=C\C#C[C@H]14 [(+)-45]	780

In the following, a different compound is considered.
Suppose we examine the compound O=C(OCCS(=O)(=O)c1ccccc1)N1c2ccccc2C23OC24CCCC3C#C/C=C\C#CC14 (stereo not shown) ; what IC50 value has been reported? 1600

Value source: patent US5281710A
